Target: T1, human CCR8 (human, UniProt P51685 1-355)
T1 construct: Native CCR8 on human PBMC (CCR8+ CD3+ or CCR8+ CD4+ lymphocytes); also called chemokine (C-C motif) receptor 8
T1 sequence (P51685 whole entry): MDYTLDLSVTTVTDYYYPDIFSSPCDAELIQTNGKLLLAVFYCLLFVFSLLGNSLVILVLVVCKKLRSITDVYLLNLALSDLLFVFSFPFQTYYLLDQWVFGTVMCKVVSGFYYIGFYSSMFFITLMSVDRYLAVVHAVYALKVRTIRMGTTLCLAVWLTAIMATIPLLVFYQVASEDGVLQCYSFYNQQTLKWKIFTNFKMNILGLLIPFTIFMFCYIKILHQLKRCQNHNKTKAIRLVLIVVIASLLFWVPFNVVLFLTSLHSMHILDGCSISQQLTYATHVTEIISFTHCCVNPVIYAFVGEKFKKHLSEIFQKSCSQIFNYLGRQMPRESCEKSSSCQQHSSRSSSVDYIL
Test: flow blocking, PBMC CCR8+CD4+; competitor PE-AB15
MEASURED PROPERTY: % Blocking (%)
Answer in %, number only, no unit symbol.

AB12 (antibody, V domains shown, Hybridoma monoclonal; also called antibody 12; clone 12) VH: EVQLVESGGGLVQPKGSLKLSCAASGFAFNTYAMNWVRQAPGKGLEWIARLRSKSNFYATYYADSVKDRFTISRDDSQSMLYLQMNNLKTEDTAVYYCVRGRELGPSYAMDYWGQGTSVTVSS VL: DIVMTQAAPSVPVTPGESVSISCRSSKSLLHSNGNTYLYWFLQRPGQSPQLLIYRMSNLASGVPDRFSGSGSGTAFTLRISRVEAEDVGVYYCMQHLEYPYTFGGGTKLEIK | 94.6

IN: // returns reported % Blocking for input AB1 (antibody, V domains shown, Hybridoma monoclonal (mouse or rat); Same VH/VL entries as AB2; also called antibody 1; clone 1) VH: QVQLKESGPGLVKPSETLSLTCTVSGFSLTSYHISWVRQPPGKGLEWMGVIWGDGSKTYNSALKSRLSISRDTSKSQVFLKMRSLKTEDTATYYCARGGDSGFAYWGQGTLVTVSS VL: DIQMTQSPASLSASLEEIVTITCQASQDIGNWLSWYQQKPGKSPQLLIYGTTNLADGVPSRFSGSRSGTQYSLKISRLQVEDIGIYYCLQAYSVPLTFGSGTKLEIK
OUT: -30.2

All figures here come from patent US20240360228A1.
